Parameter: IC50. Scope: all listed entries.
System: HGC-27 human gastric carcinoma cell line
EXPERIMENTAL_PROTOCOL: cells
TEST_PARAMETERS: Homo sapiens, HGC-27, 72 h
PARAMETER_MEASURED: IC50 (nM)

• O=c1[nH]cc(F)c(=O)[nH]1 = 10000
• CN(Cc1cnc2nc(N)nc(N)c2n1)c1ccc(C(=O)N[C@@H](CCC(=O)O)C(=O)O)cc1 [Methotrexate, methotrexate] = 33
• COc1cccc2c1C(=O)c1c(O)c3c(c(O)c1C2=O)C[C@@](O)(C(=O)CO)C[C@@H]3O[C@H]1C[C@H](N)[C@H](O)[C@H](C)O1 = 54
• CC[C@]1(O)C[C@H]2CN(CCc3c([nH]c4ccccc34)[C@@](C(=O)OC)(c3cc4c(cc3OC)N(C=O)[C@H]3[C@@](O)(C(=O)OC)[C@H](OC(C)=O)[C@]5(CC)C=CCN6CC[C@]43[C@@H]65)C2)C1 = 12.5
• COc1cc2c(cc1O)CCN[C@]21CS[C@@H]2c3c(OC(C)=O)c(C)c4c(c3[C@H](COC1=O)N1[C@@H]2[C@H]2c3c(cc(C)c(OC)c3O)C[C@@H]([C@@H]1O)N2C)OCO4 = 5.8
• CN(C)/N=N/c1[nH]cnc1C(N)=O = 346000

###

Below, each of the compounds is paired with its reported pIC50 value.
Tested on: A549 human lung carcinoma cell line
EXPERIMENTAL_PROTOCOL: MTT cytotoxicity assay in A549 cells: IC50 of single agents and combinations with PM01183
Type: cell-based
TEST_PARAMETERS: Homo sapiens, A549, 72 h
pIC50: −log10 of the molar value.
PARAMETER_MEASURED: pIC50

* O=P1(N(CCCl)CCCl)NCCCO1 (stereo not shown) [Cyclophosphamide, cyclophosphamide] | 3.00
* C#Cc1cccc(Nc2ncnc3cc(OCCOC)c(OCCOC)cc23)c1 [Erlotinib, erlotinib] | 5.00
* COc1ccc2[nH]c3c(c2c1)CCN[C@]31CS[C@@H]2c3c(OC(C)=O)c(C)c4c(c3[C@H](COC1=O)N1[C@@H]2[C@H]2c3c(cc(C)c(OC)c3O)C[C@@H]([C@@H]1O)N2C)OCO4 [PM01183] | 8.44
* CC[C@@]1(O)C(=O)OCc2c1cc1n(c2=O)Cc2cc3c(CN(C)C)c(O)ccc3nc2-1 [Topotecan, topotecan] | 6.10
* O=c1[nH]cc(F)c(=O)[nH]1 [5-FU, 5-fluorouracil] | 4.03
* COc1cc([C@@H]2c3cc4c(cc3[C@@H](O[C@@H]3O[C@@H]5CO[C@@H](C)O[C@H]5[C@H](O)[C@H]3O)[C@H]3COC(=O)[C@H]23)OCO4)cc(OC)c1O [Etoposide, etoposide] | 6.11
* CC(C)C[C@H](NC(=O)[C@H](Cc1ccccc1)NC(=O)c1cnccn1)B(O)O [Bortezomib, bortezomib] | 8.51
* CC(=O)O[C@H]1C(=O)[C@@]2(C)[C@H]([C@H](OC(=O)c3ccccc3)[C@]3(O)C[C@H](OC(=O)[C@H](O)[C@@H](NC(=O)c4ccccc4)c4ccccc4)C(C)=C1C3(C)C)[C@]1(OC(C)=O)CO[C@@H]1C[C@@H]2O [Paclitaxel, paclitaxel] | 7.40
* CN(C)/N=N/c1[nH]cnc1C(N)=O [Dacarbazine, dacarbazine] | 3.22
* COc1cc2c(cc1O)CCN[C@]21CS[C@@H]2c3c(OC(C)=O)c(C)c4c(c3[C@H](COC1=O)N1[C@@H]2[C@H]2c3c(cc(C)c(OC)c3O)C[C@@H]([C@@H]1O)N2C)OCO4 [ET-743, trabectedin] | 7.65
